Recorded maximum binding nm shift, one value per entry.
Molecular target: Human Siglec-9-Fc (recombinant human Siglec-9 extracellular domain Q18-G348 fused to human IgG1 Fc) (human)
Sequence (chain, as listed by the source limits assumed): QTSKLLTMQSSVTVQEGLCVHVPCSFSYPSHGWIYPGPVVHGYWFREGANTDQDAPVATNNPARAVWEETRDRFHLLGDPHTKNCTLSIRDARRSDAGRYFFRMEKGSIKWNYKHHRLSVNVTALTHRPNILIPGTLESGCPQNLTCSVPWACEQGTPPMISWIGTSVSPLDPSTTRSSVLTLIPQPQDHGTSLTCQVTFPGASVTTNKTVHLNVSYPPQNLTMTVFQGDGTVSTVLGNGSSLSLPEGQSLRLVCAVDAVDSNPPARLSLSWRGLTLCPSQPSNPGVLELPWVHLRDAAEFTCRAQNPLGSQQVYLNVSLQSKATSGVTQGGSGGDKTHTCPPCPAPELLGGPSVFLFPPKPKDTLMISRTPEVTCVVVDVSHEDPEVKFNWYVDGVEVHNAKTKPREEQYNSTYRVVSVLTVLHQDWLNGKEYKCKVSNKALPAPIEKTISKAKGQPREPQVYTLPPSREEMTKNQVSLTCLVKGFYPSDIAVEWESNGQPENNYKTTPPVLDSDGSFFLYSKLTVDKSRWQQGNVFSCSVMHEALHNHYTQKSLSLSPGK
Assay: BLI binning, hSiglec-9-Fc on AHC sensor; competitor bound first (row): 12L19
Procedure: Epitopic diversity of functional antibodies was further assessed by antibody cross-blocking experiments, performed on a ForteBio Octet Red384 system. All samples were prepared in black 384-well flat bottom plates from (Greiner, Cat. #781209) with a working volume of 120 uL and diluted in kinetics buffer (1×DPBS containing 0.1% bovine serum albumin, 0.05% sodium azide, and 0.02% Tween®20). […] Binning results were calculated using ForteBio Data Analysis HT software. […]
Field: numeric (nm). Do not append units.

# binder, maximum binding nm shift [nm]
rows = [
    ("9D21 (antibody, V domains shown) VH: QVQLKESGPGLVAPSQSLSITCTVSGFSLTRYGVSWVRQPPGKGLEWLGVIWGDGSTNYHSALISRLSISKDNSKSQVFLKLNSLQTDDTATYYCARPYYGFFDYWGQGTTLTVSS VL: SIVMTQTPKFLLVSAGDRVTITCKASQSVSNAVAWYQQKPGQSPKMLIYYASNRYTGVPDRFTGSGYGTDFTFTISTVQAEDLAVYFCQQDYSSPYTFGGGTKLEIK", 0.73),
]

Pending binder:
Please give the measured maximum binding nm shift for this binder: 9C15 (antibody, V domains shown) VH: QVQLQQPGAELVKPGASVKMSCKASGYTFTSYWITWLNQRPGQGLEWIGDIYPGSGGTNYNERFKSKATLTVDTSSSTAYMQLSSLTSEDSAVYYCARSGGWAMDYWGQGTSVTVSS VL: DIQMTQTTSSLSASLGDRVTISCRASQDISNYLNWYQQKPDGTVKLLIYYKSGLHSGVPSRFSGSGSGTDYSLTISNLEQEDIATYFCQQGNTLPFTFGGGTKLEIK 0.392
